measurement-protocol: protein stability index of a GFP-peptide fusion (yeast GPS) (PSI 1-4); higher = more stable; sorted into four equal gates, so the index is relative within each strain
settings: doa10∆
property-label: protein stability index

For record PFHSHLLVPASDLINKD [FAS1] the listed protein stability index is 1.83

Field protein stability index (entry LEDIYTSAHEAIRADPA [RPL5] ) reads 3.04

protein stability index measured on KILITYGSSPKLLATST [SRB8] = 1.22

Reported protein stability index ( QLLQRLNDMNTEISGLK [SMC3] ) = 3.28

Looking up SKQDASPKPYAVKYGLN [RPL8A] , I see its protein stability index listed as 3.3

The sequence YNSVAEAKKFEPTYRLV [RPS24A] showed protein stability index equal to 2.87

# sequence AGLDKGISINNMMEHWD [RPO31] ; its protein stability index = 3.04

Lab note: measured protein stability index of EITAKEVYDFTHAVGNN [FAS1] was 3

APEKDIWVGEWKEVLAH [RPO31] yielded protein stability index of 2.47

protein stability index reading for NFKKFNERRKDLAERAS [SMC3] : 1.47

For this sequence ( VGKDTPFTIYDGEAVAK [PRE5] ), measured protein stability index is 2.7

Measured protein stability index of WGTLQSVSPQMNAILTD [SMD1] : 2.83

// protein stability index lookup, sequence = NKKLIKKLSKKYNAFIA [RPL1A] , result: 1.45

Kindly note the recorded protein stability index for EEYKKSLYAYCHSKLRG [GRR1] , which is 2.29

Field protein stability index (entry KESAVISKQKSKLDYIF [SMC1] ) reads 3.04

Form: sequence = VLAAQSIGEPATQMTLN [RPO21] ; protein stability index = 2.69

The recorded protein stability index for LHDEYLVSMRYPEDKKT [RPN3] is 2.81

Form: sequence = EPIYGVQYKLLSISVPS [SNU114] ; protein stability index = 2.18

The sequence identified as PIPDARNAALRAKAEAA [SCL1] registered its protein stability index at 2.39

// protein stability index lookup, sequence = MVGLASGNDSMAGKVLI [BRR2] , result: 3.24

protein stability index measured on NSGIIPGNRNADNVDKI [FAS2] = 2.52

Per the record, DLKFEPQGRQSTTFADC [RPC40] has protein stability index of 3.37

Documented protein stability index of IACVLTVINEQQREAVR [RPL35A] : 1.73

The sequence identified as HELGINIDSLKFNELVK [BRR2] registered its protein stability index at 2.89

// protein stability index lookup, sequence = ASIESADILCPLLESFI [IRR1] , result: 3.19

protein stability index reported for this sequence FVDDTNVYRVTVHKTFE [PRP8] : 2.68

What the record says about KANIFQVIKNEVCAKMP [SSN2] : protein stability index is 2.7

// protein stability index lookup, sequence = QGSVTVGLRSNTHAVLV [PRE5] , result: 1.24

get_value(item= DTAGEESQQQDESLKDE [SWI3] , readout=protein stability index) returns 3.36

sequence DYQVQGLNWLISLHENK [ISW2] , protein stability index observed: 1.53

Value of protein stability index reported for the sequence VTRGISVLKDSDDKTRQ [PRE1] is 3.16

Entry PTNCPLRQFKTCPVEVI [BRR2] — recorded protein stability index = 3

Looking up ATKAINGCIFTLNPKTG [PRP8] , I see its protein stability index listed as 2.79

Looking up DKLLDPTTVSYIFCISR [SCL1] , I see its protein stability index listed as 2.97

Value of protein stability index reported for the sequence ADKNCAKLHRISPKIWC [PUP1] is 2.09

Per the record, MPQSFTSIARIGDYILK [QCR7] has protein stability index of 3.35

response.value for EPKKDKESIVLPTVGFD [YOR098C/NUP1] (field: protein stability index) = 2.43

Entry NTHYHADYRLILTGTPL [SNF2] , protein stability index reported as 1.31

Recorded result, IKYEFNGIPLKSKERSS [YMR129W/POM152] , protein stability index: 2.39

According to the records, this sequence YQWNLDGLQQLDKYLYV [RPN1] displays protein stability index of 2.92

FHVGFIAKIKKVCECVC [RPO21] has a reported protein stability index of 1.15

protein stability index reading for EGRLYQVEYALESISHA [PRE9] : 2.09

Value of protein stability index reported for the sequence EKIAAGYMQKPVYATIG [PRP28] is 2.87

What the record says about SLQSCSVAVHFQYVIDE [SMC4] : protein stability index is 1.82

Note to self: protein stability index recorded for EPFNAGIKYHATPPLKR [SMC1] was 3.05

Field protein stability index (entry DVVAKLEAKRKVSSAEY [RPL16A] ) reads 1.69

Item: RNISFSDNNSRIMSRNF [SWI1] | protein stability index: 2.93

// PSNSTTTLHGPGFQLPN [SRB8] : protein stability index value = 3

Recorded protein stability index (sequence SDAMSIDEEDKDSESFS [YCG1] ): 2.85

Briefly, protein stability index measured for YSMISLQNCCIIDVGTH [ARP9] : 1.75

Sure, the documented protein stability index for HNGSHRTVAGFSNVELP [ARP7] is 3.1

Measured protein stability index, DLLKFENISLAEFILKN [BRR2] : 2.94

// EDALYLGKRSILAAAHR [PRE2] : protein stability index value = 3.42

Documented protein stability index of VEEAHDFNMKLAINAKT [RPB2] : 3.09

protein stability index in this record for KVSYAVKKPQKSKTSTG [SNM1] : 2.85

Form field protein stability index, entry PSIPLVIIRRLKTRDWI [POP1] : 2.72
